assay: Solubility limit; type: physicochemical; conditions: liquid culture of C. albicans
Parameter: solubility (µg/mL)

| Smiles Input | Recorded Number |
| --- | --- |
| O=C(O)C12c3ccccc3C(c3ccccc31)c1ccccc12 | 80 |
